# ASSAY TARGET: Mitogen-activated protein kinase 1 (Homo sapiens, UniProt P28482)
# Sequence (P28482 whole entry): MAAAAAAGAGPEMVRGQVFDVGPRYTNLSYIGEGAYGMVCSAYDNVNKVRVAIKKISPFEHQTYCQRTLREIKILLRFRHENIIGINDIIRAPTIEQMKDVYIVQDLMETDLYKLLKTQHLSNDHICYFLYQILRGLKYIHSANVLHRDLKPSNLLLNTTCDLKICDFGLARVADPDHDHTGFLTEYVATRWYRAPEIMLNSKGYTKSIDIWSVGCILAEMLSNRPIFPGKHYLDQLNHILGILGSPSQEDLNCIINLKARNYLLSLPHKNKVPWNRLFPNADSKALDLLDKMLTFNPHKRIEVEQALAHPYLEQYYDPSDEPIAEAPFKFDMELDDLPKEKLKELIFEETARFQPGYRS
# EXPERIMENTAL DETAILS: Inhibition of activated Erk2 (unknown origin) by biochemical assay
# CONDITIONS: read-out: IC50

GIVEN SMILES: O=C(Nc1ccc(O)c(C(F)(F)F)c1)[C@@H]1CCN(CC(=O)N2CCN(c3ccc(-c4ncccn4)cc3)CC2)C1
RESULT UNITS: µM
IC50: 0.1
//
GIVEN SMILES: O=C(Nc1ccc(O)c(Cl)c1)[C@@H]1CCN(CC(=O)N2CCN(c3ccc(-c4cncnc4)cc3)CC2)C1
RESULT UNITS: µM
IC50: 1.8
//
GIVEN SMILES: O=C(Nc1ccc(O)c(Cl)c1)[C@@H]1CCN(CC(=O)N2CCN(c3ccc(-c4cccs4)cc3)CC2)C1
RESULT UNITS: µM
IC50: 20
//
GIVEN SMILES: O=C(Nc1ccc(O)c(C2CC2)c1)[C@@H]1CCN(CC(=O)N2CCN(c3ccc(-c4ncccn4)cc3)CC2)C1
RESULT UNITS: µM
IC50: 1.76

---

# ASSAY TARGET: Mitogen-activated protein kinase 1 (Homo sapiens)
# EXPERIMENTAL DETAILS: ATP competitive inhibition of activated Erk2 (unknown origin) by biochemical assay

COMPOUND: CC(=O)c1ccc(N2CCN(C(=O)CN3CCC(C(=O)Nc4ccc(O)cc4)C3)CC2)cc1 (stereo unspecified)
RESULT UNITS: µM
IC50: 15.2

---

# ASSAY TARGET: Mitogen-activated protein kinase 1 (Homo sapiens)
# EXPERIMENTAL DETAILS: Binding affinity to activated Erk2 (unknown origin) by TdF assay
QUANTITY NAME: Kd (nM)

COMPOUND: CC(=O)c1ccc(N2CCN(C(=O)CN3CCC(C(=O)Nc4ccc(O)cc4)C3)CC2)cc1 (stereo unspecified)
ASSAY TARGET: Mitogen-activated protein kinase 1 (Homo sapiens)
VALUE: 1900

---

# ASSAY TARGET: Mitogen-activated protein kinase 1 (Homo sapiens, UniProt P28482)
# EXPERIMENTAL DETAILS: Inhibition of activated Erk2 (unknown origin) by biochemical assay
# CONDITIONS: read-out: IC50
pIC50: −log10 of the molar value.
Think of 5 as a floor: if pIC50 stands on it or above, it is MET; beneath it, NOT MET.

GIVEN SMILES: O=C(Nc1ccc(O)c(Cl)c1)[C@@H]1CCN(CC(=O)N2CCN(c3ccc(-c4cnccn4)cc3)CC2)C1
ASSAY TARGET: Mitogen-activated protein kinase 1 (Homo sapiens, UniProt P28482)
CLASS ASSIGNMENT: MET
--
GIVEN SMILES: CC(=O)c1ccc(N2CCN(C(=O)CN3CC[C@@H](C(=O)Nc4ccc(O)cc4)C3)CC2)cc1
ASSAY TARGET: Mitogen-activated protein kinase 1 (Homo sapiens, UniProt P28482)
CLASS ASSIGNMENT: MET
--
GIVEN SMILES: CC(C)c1cc(NC(=O)[C@@H]2CCN(CC(=O)N3CCN(c4ccc(-c5ncccn5)cc4)CC3)C2)ccc1O
ASSAY TARGET: Mitogen-activated protein kinase 1 (Homo sapiens, UniProt P28482)
CLASS ASSIGNMENT: MET
--
GIVEN SMILES: O=C(Nc1ccc(O)c(Cl)c1)[C@@H]1CCN(CC(=O)N2CCN(c3ccc(-c4ncccn4)cc3)CC2)C1
ASSAY TARGET: Mitogen-activated protein kinase 1 (Homo sapiens, UniProt P28482)
CLASS ASSIGNMENT: MET
--
GIVEN SMILES: O=C(Nc1ccc(O)c(Cl)c1)[C@@H]1CCN(CC(=O)N2CCN(c3ccc(-c4ncc(F)cn4)cc3)CC2)C1
ASSAY TARGET: Mitogen-activated protein kinase 1 (Homo sapiens, UniProt P28482)
CLASS ASSIGNMENT: MET
--
GIVEN SMILES: COc1ccc(-c2ccc(N3CCN(C(=O)CN4CC[C@@H](C(=O)Nc5ccc(O)c(Cl)c5)C4)CC3)cc2)cc1
ASSAY TARGET: Mitogen-activated protein kinase 1 (Homo sapiens, UniProt P28482)
CLASS ASSIGNMENT: NOT MET
--
GIVEN SMILES: O=C(Nc1ccc(O)c(Cl)c1)[C@@H]1CCN(CC(=O)N2CCN(c3ccc(-c4ccc(F)cc4)cc3)CC2)C1
ASSAY TARGET: Mitogen-activated protein kinase 1 (Homo sapiens, UniProt P28482)
CLASS ASSIGNMENT: NOT MET
